# Tested on: Pseudomonas aeruginosa
# protocol-description: Antibacterial activity against Pseudomonas aeruginosa
# Type: functional
Activity calls are given as the source filed them. The calls are words filed in the database; no cut-off is given here.
readout-label: inhibition zone (IZ)

CC1/C(=N/OC(=O)Oc2ccccc2)CC(c2ccccc2)N(C)C1c1ccccc1 (stereo not given): 12 mm
COC(=O)O/N=C1\CC(c2ccccc2)N(C)C(c2ccccc2)C1C (stereo not given): inactive
COC(=O)O/N=C1\CC(c2ccccc2)N(C)C(c2ccccc2)C1C(C)C (stereo not given): inactive
CC(Cl)OC(=O)O/N=C1\CC(c2ccccc2)N(C)C(c2ccccc2)C1C(C)C (stereo not given): 32 mm

inhibition zone (IZ) for CCOC(=O)O/N=C1\CC(c2ccccc2)N(C)C(c2ccccc2)C1C (stereo not given) is inactive

Lab note: CCC1/C(=N/OC(=O)OC(C)Cl)CC(c2ccccc2)N(C)C1c1ccccc1 (stereo not given) gave inhibition zone (IZ) of 22 mm

For record CCOC(=O)O/N=C1\CC(c2ccccc2)N(C)C(c2ccccc2)C1C(C)C (stereo not given) the listed inhibition zone (IZ) is inactive

Entry `CN[C@@H]1[C@H](O[C@H]2[C@H](O[C@H]3[C@H](O)[C@@H](O)[C@H](N=C(N)N)[C@@H](O)[C@@H]3N=C(N)N)O[C@@H](C)[C@]2(O)C=O)O[C@@H](CO)[C@H](O)[C@H]1O` ; inhibition zone (IZ) = 26 mm

Record summary for CC1/C(=N/O)CC(c2ccccc2)N(C)C1c1ccccc1 (stereo not given) : reported inhibition zone (IZ) = inactive

response.value for CCC1/C(=N/O)CC(c2ccccc2)N(C)C1c1ccccc1 (stereo not given) (field: inhibition zone (IZ)) = inactive
